System: M. tuberculosis H37Rv growth inhibition with meropenem
ASSAY SUMMARY: dose response, H37Rv, with and without meropenem (AID 434987);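 also: growth over 7 days at 37 °C before Alamar Blue read on day 9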
TEST CONDITIONS: M. tuberculosis H37Rv growth inhibition; measured here: IC50 without meropenem
# Lookup of reported IC50 keyed by entry

# COMPOUND, IC50
measured = [
    ("COc1ccc2c(c1)c(CC(=O)Nc1ccc(C)cc1)c(C)n2C(=O)c1ccc(Cl)cc1", "> 100 µM"),
    ("COc1ccc(-c2csc(/C=C/c3ccc4c(c3)OCO4)n2)cc1OC", "> 100 µM"),
    ("CCOC(=O)[C@H]1[C@H]2COc3ccc(Br)cc3[C@@H]2N2C(=O)c3cc(OC)c(OC)cc3NC(=O)[C@@]12C", "80.9 µM"),
    ("CCc1ccc(NC(=O)C2C3/C=C\\CCCCC32)cc1 (centres undefined)", "> 100 µM"),
    ("CSc1ncccc1C(=O)Nc1nc2ccc(Oc3ccccc3)cc2s1", "> 100 µM"),
    ("Cc1ccc2occ(/C=C/C(=O)c3ccccc3O)c(=O)c2c1", "> 100 µM"),
    ("Cc1ccc(OCC(=O)N/N=C/c2cn(C)c3ccccc23)cc1", "> 100 µM"),
    ("Cc1c(NC(=O)c2noc3c2CCc2ccccc2-3)c(=O)n(-c2ccccc2)n1C", "> 100 µM"),
    ("Cc1ccsc1/C=N/Nc1ncc(Cl)cc1Cl", "50.9 µM"),
    ("CCOc1ccc2nc(SC3CC(=O)N(c4ccc(OC)cc4)C3=O)sc2c1 (centres undefined)", "> 100 µM"),
    ("C=CCn1c(SCc2ccc(C(=O)Nc3nccs3)cc2)nnc1-c1ccc(C)c(Cl)c1", "> 100 µM"),
    ("O=C(NN1C(=O)c2cc(Br)ccc2NC1c1ccccc1Cl)c1ccncc1 (centres undefined)", "35 µM"),
    ("C/C(=N/NC(=O)c1cccs1)c1ccc(NC(=O)COc2ccc(Cl)cc2)cc1", "> 100 µM"),
    ("Cn1nc(-c2ccc(OCC(=O)NCC3CCCO3)cc2)c2ccccc2c1=O (centres undefined)", "> 100 µM"),
]

====

System: M. tuberculosis H37Rv growth inhibition with meropenem
ASSAY SUMMARY: dose response, H37Rv, with and without meropenem (AID 434987);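 also: growth over 7 days at 37 °C before Alamar Blue read on day 9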
TEST CONDITIONS: measured here: IC90 with meropenem
# Lookup of reported IC90 keyed by entry
PROPERTY NAME: IC90

# COMPOUND, RESULT
records = [
    ("Cc1ccccc1OCC(=O)Nc1ccccc1N1CCCCC1", "13.5 µM"),
    ("COc1ccc(C[C@H](C)NC[C@@H](O)c2ccc(O)c(NC=O)c2)cc1", "> 100 µM"),
    ("NS(=O)(=O)c1cccnc1Nc1c(Cl)cccc1Cl", "> 100 µM"),
    ("Cc1cccc(NC(=S)NC2CC3C=CC2C3)c1 (stereo not drawn)", "> 100 µM"),
    ("Cc1ccc(CNC(=O)c2ccccc2NC(=O)CSc2nnnn2C)cc1", "> 100 µM"),
    ("Cc1ccc(C)c(N2CCN(C3CCCC(C)C3)CC2)c1 (stereo not drawn)", "48.2 µM"),
    ("CCCCOc1ccc(/C=N/Nc2cc(N3CCOCC3)nc(C)n2)cc1", "> 100 µM"),
    ("Cc1cc(NC(=O)/C=C/c2ccccc2Cl)n(-c2nc3ccccc3[nH]2)n1", "> 100 µM"),
]

====

# Lookup of reported pIC50 keyed by entry
Test system: M. tuberculosis H37Rv growth inhibition with meropenem
ASSAY SUMMARY: dose response, H37Rv, with and without meropenem (AID 434987);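 also: growth over 7 days at 37 °C before Alamar Blue read on day 9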
TEST CONDITIONS: M. tuberculosis H37Rv growth inhibition; measured here: IC50 without meropenem
pIC50: −log10 of the molar value.

# MOLECULE, pIC50
measured = [
    ("CC1=NN(c2ccccc2)C(=O)/C1=C/c1c(O)[nH]c(=S)[nH]c1=O", "< 4.00"),
    ("Cc1ccn2c(CNCCn3nc(C)cc3C)c(C(=O)N3CCCCCC3)nc2c1", "< 4.00"),
    ("Cc1cc(=S)nc(-c2ccccn2)[nH]1", 4.32),
    ("O=C(/C=C/c1ccccc1[N+](=O)[O-])c1ccc(F)cc1", 4.03),
    ("O=C(COc1ccccc1)NNC(=O)c1cc2ccccc2oc1=O", "< 4.00"),
    ("CCOC(OCC)c1cn(Cc2ccc3c(c2)C(=O)c2ccccc2C3=O)nn1", "< 4.00"),
    ("COc1cc(/C=C/C(=O)NC(C)(C)C)ccc1OCc1ccccc1", "< 4.00"),
    ("CCC(CC)c1nnc(NC(=O)c2cc(-c3ccccc3)nc3ccccc23)s1", "< 4.00"),
    ("Cn1c(=O)[nH]c(=O)c2c1nc(Br)n2CCC(=O)c1ccccc1", "< 4.00"),
    ("O=C(NC1CCCC1)c1ccccc1OCc1ccccc1", 4.43),
    ("CCOC(=O)C1=C(N)OC(CCl)=C(C#N)C1c1ccsc1 (stereo not given)", "< 4.00"),
    ("COc1ccc(-c2csc(Nc3ccc(C)cn3)n2)cc1OC", "< 4.00"),
    ("O=C(CN1CCN(S(=O)(=O)c2ccc(F)cc2)CC1)Nc1ccc2c(c1)OCCO2", 4.05),
    ("O=C(OCC(=O)c1ccc[nH]1)C1=COCCO1", 4.05),
    ("COc1ccc(CNC(=O)c2sc3nc4c(c(C(F)(F)F)c3c2N)CCC4)cc1", 4.98),
    ("c1ccc(Nc2ncnc3c2oc2ccccc23)cc1", "< 4.00"),
    ("COC(=O)c1ccccc1NC(=O)CSCC(=O)Nc1ccc(F)cc1", 4.02),
    ("O=C(Nc1ccc(Cl)cc1)C1CC2CCCC(C1)C2=O (stereo not given)", "< 4.00"),
    ("c1ccc2c(c1)CC1CNCc3cccc(c31)S2 (stereo not given)", "< 4.00"),
    ("Cc1nn(-c2ccccc2)c(N2CCCC2)c1/C=C1\\N=C(c2ccc(F)cc2)OC1=O", 4.63),
    ("CCOc1ccc(N(CC(=O)NCCSCc2ccccc2Cl)S(C)(=O)=O)cc1", "< 4.00"),
    ("CN(C)C1=C(Cl)C(=O)N(c2ccc(Cl)c(Cl)c2)C1=O", 5.10),
    ("COC(=O)N1C(=O)[C@](Cc2ccccc2)(c2ccccc2)N1C(=O)OC", "< 4.00"),
    ("CC(/C=C(\\NC(=O)c1ccccc1)C(=O)N=Nc1c(O)[nH]c2ccc(C)cc12)=C\\c1ccccc1", "< 4.00"),
    ("COc1ccc(-c2csc(NC(C)c3nc4cc(Cl)c(Cl)cc4n3CCCO)n2)cc1 (stereo not given)", "< 4.00"),
    ("Cc1cccc(C)c1OCC(=O)NNC(=O)CNC(=O)c1ccc(OC(F)F)cc1", "< 4.00"),
    ("O=C(/C=C/c1ccccc1)NC1CC2CCC1C2 (stereo not given)", "< 4.00"),
    ("COc1ccc(NC(=O)COC(=O)Cc2ccc(-c3ccccc3)cc2)c(OC)c1", "< 4.00"),
    ("Cc1[nH]n(-c2ccccc2)c(=O)c1/C=N/NC(=O)c1ccoc1C", "< 4.00"),
    ("CN(C)c1ccc(/C=N/NC(N)=S)cc1[N+](=O)[O-]", "< 4.00"),
]

====

System: M. tuberculosis H37Rv growth inhibition with meropenem
ASSAY SUMMARY: dose response, H37Rv, with and without meropenem (AID 434987);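 also: growth over 7 days at 37 °C before Alamar Blue read on day 9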
TEST CONDITIONS: measured here: IC90 with meropenem

# COMPOUND, IC90
rows = [
    ("Cc1ccc(SCCNC(=O)c2ccc(C)c([N+](=O)[O-])c2)cc1", "54 µM"),
    ("O=C(COC(=O)c1ccc([N+](=O)[O-])s1)NCc1ccccc1", "39.4 µM"),
    ("COC(=O)c1ccc(/C=N\\NC(=O)c2ccc(C)cc2Cl)cc1", "> 100 µM"),
    ("Cc1cc(C)c(NC(=O)CC(C)(C)C)c(Cl)c1", "> 100 µM"),
    ("CCCCCc1nnc(NC(=O)C2COc3ccccc3O2)s1 (stereo unspecified)", "> 100 µM"),
    ("Cc1cc(C)c2oc(-c3ccc(Cl)c(NC(=O)c4ccc(C#N)cc4F)c3)nc2c1", "> 100 µM"),
    ("O=C(c1cnn2c(C(F)(F)F)cc(-c3cccs3)nc12)N1CCN(C(c2ccccc2)c2ccccc2)CC1", "> 100 µM"),
    ("O=C(N[C@@H](Cc1ccccc1)C(=O)CCl)OCc1ccccc1", "46.9 µM"),
    ("CCN(CC)c1ccc(C(=O)n2cnc3ccccc32)cc1", "> 100 µM"),
    ("CCOc1cc(N2CCOCC2)c(OCC)cc1NC(=O)c1cc(C)cc(C)c1", "> 100 µM"),
    ("CCN(CC)c1ccc(NC(=O)c2cc(Cl)ccc2OC)cc1", "> 100 µM"),
    ("COc1ccc(Cn2c(C)nc3c(c(=O)c4ccccc4n3C)c2=O)cc1", "> 100 µM"),
    ("Cc1ccc(C(=O)OCCN2CCN(c3ncc(C(F)(F)F)cc3Cl)CC2)cc1", "> 100 µM"),
    ("O=C(c1csc2c1CCCC2)n1cccn1", "> 100 µM"),
    ("CS(=O)(=O)N(Cc1ccc(Cl)cc1)c1ccc(C(=O)NCCC2=CCCCC2)cc1", "> 100 µM"),
    ("Cc1ccc(Cn2c(C(C)Nc3nc(-c4ccc(Cl)cc4)cs3)nc3cc(C(=O)NCCCO)ccc32)cc1 (stereo unspecified)", "> 100 µM"),
]
